test: Cmax in rat at 0.5 mg/kg, iv and 1 mg/kg, po; type: ADME, organism-based; settings: in vivo
Metric: Cmax (ng/mL)
Numbers only, in ng/mL.

> print(dat)
                        structure.as.smiles  metric  observed.measurement
1  CCS(=O)(=O)c1ccc2oc(Nc3ccc(OC(C)C)cc3)nc2c1    Cmax                     6

Note: attention shifts to another entry.
Please look at this compound and report its Cmax: "CCS(=O)(=O)c1ccc2oc(Nc3ccc(N4C[C@@H](C)O[C@@H](C)C4)cc3)nc2c1"
26

###

test: AUC (0 to infinity) in rat at 0.5 mg/kg, iv and 1 mg/kg, po; assay type: ADME, organism-based; details: plasma
Provide the reported AUC(0-inf) of each item.
Give bare numbers, in ng·h/mL.

> print(dat)
                        structure.as.smiles      metric  observed.measurement
1  CCS(=O)(=O)c1ccc2oc(Nc3ccc(OC(C)C)cc3)nc2c1  AUC(0-inf)                    40

Supply recorded AUC(0-inf) for "CCS(=O)(=O)c1ccc2oc(Nc3ccc(N4C[C@@H](C)O[C@@H](C)C4)cc3)nc2c1" here.
260
